System: MDA-MB-435 melanoma
test-summary: NCI-60 one-dose screen, 48 h (100 = growth as untreated, 0 = no growth, -100 = all killed)
condition-label: 10 µM unless noted
Procedure: Growth inhibition of the MDA-MB-435 human Melanoma tumor cell line is measured as a screen for anti-cancer activity. Cells are grown in 96 well plates and exposed to the test compound for 48 hours. Compounds are tested at a single concentration, which is 10^-5 M for most compounds. The reported endpoint is percent growth (GI% or GIPRCNT), where numbers from 0 - 100% represent growth inhibition, and numbers from -100% - 0 represent cell death. […]
Compounds without any hit were thinned out: in the full panel of roughly 83,000, 20% have a hit.
observation-type: growth (%)
One number for each entry, in %.

Example entries and their recorded answers appear below.
• CN1C(=O)N(C)C2C1NN=c1s/c(=C\c3ccc(Br)cc3)c(=O)n12 (centres undefined) = -50.4
• CN1C(=O)NC(Cc2c[nH]c3c(Cl)cccc23)C1=O (centres undefined) = 114
• CC[C@]1(O)C[C@H]2CN(CCc3c([nH]c4ccccc34)C(C(=O)OC)(c3cc4c(cc3OC)N(C)[C@H]3[C@@](O)(C(=O)OC)[C@H](OC(C)=O)[C@]5(CC)[C@@H]6C[C@@H]6CN6CC[C@]43[C@@H]65)C2)C1 (some centres undefined) = -12.8

Give growth for each of the items listed below.
1. COc1ccc(NC(=O)c2sc3c(=O)[nH]c(C(F)(F)F)nc3c2C)cc1
2. Cc1cc(C#Cc2ccc(C(C)(C)C)cc2)ccc1-n1c(/C=C/c2c(Cl)cccc2Cl)nc2ccccc2c1=O
3. CCOC(=O)c1cc(C(=O)OCC)c(C)nc1C
4. c1cn2cc(-c3ccc4ncn(C5CCCCC5)c4c3)nc(-c3ccc4c(c3)ncn4C3CCCCC3)c2n1
5. COC(=O)C(Br)(C(=O)OC)C(Br)C(Br)C(Br)c1ccccc1 (centres undefined)
6. Nc1nc(N)c2cc(NCc3ccc(Cl)c(Cl)c3)ccc2n1

Found:
1: 103; 2: 98; 3: 105; 4: -73; 5: 47.9; 6: -68.1

Just for reference, PubChem BioAssay (NCI) is where these values come from.
